- System: Vero cells
- TEST PROTOCOL: Cytotoxicity in Vero cells (CPE)
- RUN PARAMETERS: 48 h, Reed & Muench
REPORTED ENDPOINT: TC50 (50% cytotoxic concentration), Cox B3 (µM)

O=[N+]([O-])c1cccc(CNc2ccc3ncsc3c2)c1	112.45
c1ncc(CNc2ccc3ncoc3c2)cn1	295.10
C(=C\c1ccccc1)/CNc1ccc2nc[nH]c2c1	25.75
COc1cccc(CNc2ccc3ncsc3c2)c1O	67.23
O=[N+]([O-])c1ccc(CNc2ccc3ncoc3c2)cc1	257.52
Cc1ccc(CNc2ccc3cc[nH]c3c2)o1	25.15
COc1ccccc1/C=C/CNc1ccc2ncsc2c1	12.48
C(=C\c1ccccc1)/CNc1ccc2ncoc2c1	103.36
Cc1ccc(CNc2ccc3nc[nH]c3c2)o1	254.07
Clc1ccc(CNc2ccc3cc[nH]c3c2)cc1	8.34
C(=C\c1ccccc1)/CNc1ccc2cc[nH]c2c1	8.61
c1cnc2c(CNc3ccc4ncoc4c3)cccc2c1	80.80
Cc1ccc(CNc2ccc3cc[nH]c3c2)s1	66.10
Cc1ccc(CNc2ccc3ncsc3c2)o1	65.57
c1csc(CNc2ccc3ncoc3c2)c1	100.35
COc1cc(CNc2ccc3ncsc3c2)cc(Br)c1O	21.08
c1ncc(CNc2ccc3ncsc3c2)cn1	826.44
Clc1ccc(CNc2ccc3ncsc3c2)s1	13.18
COc1cc(CNc2ccc3ncoc3c2)cc(Br)c1O	55.13
c1csc(CNc2ccc3ncsc3c2)c1	65.03
C(=C\c1ccccc1)/CNc1ccc2ncsc2c1	20.05
O=[N+]([O-])c1ccc(CNc2ccc3ncsc3c2)cc1	181.3
Clc1ccc(CNc2ccc3ncoc3c2)s1	29.08
c1ccc2c(CNc3ccc4ncsc4c3)c3ccccc3cc2c1	2.09

# credit: paper PMC6271935
